All values here come from the EternaBench riboswitch data.

# System: MS2 coat protein
# assay.details: apparent Kd, MS2 coat protein; higher = weaker binding; RNA-MaP array; theophylline 2 mM where present
# test.context: designed as: OFF switch for theophylline; no ligand
Can you tell me apparent Kd for the items I'm about to list?
The response must be a number in nM with no trailing unit.

Requested read-out apparent Kd, target or system MS2 coat protein, entry ACAUGAGGAUCACCCAUGUUCCUCAUUGAUACCAGUGAAUUUAGACGCCCUUGGCAGCGAGUUUAAGAAGAAGAAGUUUUUUUUU
667

Query the reported apparent Kd for MS2 coat protein; item: AUAUUAAAGAGUGAUACCAGACUACAUGAGGAUCACCCAUGUUACAUUUAAAUAUCAUUUGUCCCUUGGCAGCACAUUAAGUACA
17.4

Recall the recorded apparent Kd for UUAUUUAUAAUGGAUACCAGUCGUAUGGCCCGGCAUCCUGACAUGAGGAUCACCCAUGUCGACCCUUGGCAGCUGUUAUGGGUUU with MS2 coat protein and state it.
13.5

Lab note: need apparent Kd for ACAUGAAGAACAGCGGUGGGCGCGCUCGAUACCAGUACUUUGAUAUACCCUUGGCAGCGACAUGAGGAUCACCCAUGUGAGAUGA on MS2 coat protein, anyone have it?
18.7

====

# Tested on: MS2 coat protein
# assay.details: apparent Kd, MS2 coat protein; higher = weaker binding; RNA-MaP array
# test.context: ligand present: tryptophan; designed as: OFF switch for tryptophan
measurement.name: apparent Kd (nM)
Answer format: numeric, nM implied, no suffix.

Which apparent Kd value is on record for GCACGGGCGAUCGGCACUUUUACUAAUAUACGAGGACCGGUACGGCCGCCACUCGAGCUAAGACAUGAGGAUCACCCAUGUAACG ?
49.3

Please give the measured apparent Kd for this sequence: CAACUGCUUGAGCUUACUUAUUGGACUUCCCGAGGACCGGUACGGCCGCCACUCGCAGGGACACAUGAGGAUCACCCAUGUAAAG
16.2

Any idea what apparent Kd was measured for UGUCACUGUUUGGUUCAAUGAAGAAGAAUUCGAGGACCGGUACGGCCGCCACUCGCUAUGCAACAUGAGGAUCACCCAUGUAAAA ?
15.3

GET /values?readout=apparent Kd&item= GCCCUGCGCCCGGGACCGGCAAGAUCCAUGCGAGGACCGGUACGGCCGCCACUCGCAGACGUACAUGAGGAUCACCCAUGUCCUC
663

Give its apparent Kd value. Item: ACUGCUUUAGCGGCCGCCACUACAUGGACACUUACACUUUCUUGUUACAUGAGGAUCACCCAUGUUAGGACCGGGCUUGUACGGA
78.2

I'd like to know its apparent Kd. The sequence in question is GGAACAUGAGGAUCACCCAUGUAAUCACGACGAGGACCGGUACGGCCGCCACUCGUAUUCACGCAAGGUAGAGGAAUACGUAGGC
13.8

====

# Test system: MS2 coat protein
# assay.details: apparent Kd, MS2 coat protein; higher = weaker binding; RNA-MaP array; theophylline 2 mM where present
# test.context: ligand present: theophylline; designed as: ON switch for theophylline
measurement.name: apparent Kd (µM)
Enter your answer as a number in µM; do not include the unit.

# lookup: apparent Kd of GACAUGAGGAUAGAUACCAGCGACAUGAGGAUCACAUGAGGAUCACCCAUGUGUAGUAUACGCCCUUGGCAGCUAACAUGAGGAU
0.094

Give its apparent Kd value. Item: AAUAACAUGAGGAUCACCCAUGUAAAAGAUACCAGAGUGAUGAUCCUCCCUUGGCAGCUUAAUAACGCUAUUGGAAACAAUAGCG
0.122

What does the data say about its apparent Kd? Entry: GAUAGUUGAAGGGAUACCAGCCUGGACAUGAGGAUCACCCAUGUAGCAUGUUUGAAACUGGGCCCUUGGCAGCCCAUAUUGUGUA
0.0144

Need apparent Kd of CCUCAUGUGGUGCUGCACAUGAGAGGUGAUACCAGCAUCGAAAGAUGCCCUUGGCAGCACCAACAUGAGGAUCACCCAUGUAAUA , thanks.
0.135

Would you kindly share the measured apparent Kd for GGAAUUAAGACUGAUACCAGUCAAGAUAAUCAUAAGAAUAAACAUGAGGAUCACCCAUGUGACCCUUGGCAGCAGACUAAUACCG ?
0.0295

Which apparent Kd value is on record for AUCGUACCUGAGGAUACCAGCAUGUGAUCAUAACAUGAGGAUCACCCAUGUAAUCAGUGAUGCCCUUGGCAGCUUAGUCGAUACA ?
0.0452

What does the data say about its apparent Kd? Entry: UCCUUAGAUACUGAUACCAGACUACAGUAAACAUGAGGAUCACCCAUGUUUGAUCACUAAGUCCCUUGGCAGCAGGUACAUGGGA
0.00908

====

# Test system: MS2 coat protein
# assay.details: apparent Kd, MS2 coat protein; higher = weaker binding; RNA-MaP array
# test.context: ligand present: flavin mononucleotide; designed as: OFF switch for flavin mononucleotide
I'd appreciate it if you could supply apparent Kd values for the items below.
Lab book: enter the figure in nM, no units written.

Report apparent Kd for UGUGACCGCCAUUCUCGCGACAUGAGGAUCACCCAUGUUUCCAGAAGGCUCCAGGCUUGUGCUCGAGAGGAUAUGGGAAGAUUC tested on MS2 coat protein.
26.5

apparent Kd of ACGGUUCGAGGAUAUGUCGGUAGUUACAUGAGGAUCACCCAUGUUGUGACAUCGUGGUGGACAGAAGGCGACAUCC on MS2 coat protein?
119

Tell me reported apparent Kd for CCUCGUGGACAGGAUAUACACUCGUAUGAUCAUGUAGAAGGGUCCACAUGAGGAUCACCCAUGUUGACAGCCGU , tested with MS2 coat protein.
81.4

Identify the measured apparent Kd of GCGGAACAUGAGGAUCACCCAUGUAAGGAUAUCGUGAGGGAACGGCAGCAACACUGAUCGAGAAGGUACAGGGC for MS2 coat protein.
36.4

Form field - read-out: apparent Kd; system: MS2 coat protein; submitted item: CCUUAGUGAGGAUAUGCAUAGCCUUGGCGGCCAGGAGCCAAGCAGAAGGCACAUGAGGAUCACCCAUGUCCGGU
22.8

Requested read-out apparent Kd, target or system MS2 coat protein, entry UAUUGCAAUGUGAGGAUAUCUCAAGAAAAGACAAGAGAGAAGGCACAUGAGGAUCACCCAUGUUAGAAACAAAA
110

Form: Entry = CUAAUGGUUGCAGGAUAUCGAAAACCGCACAUGAGGAUCACCCAUGUCGCUAAGCGUGACAUAGUCGAGAAGGGCAUGACAACU | System = MS2 coat protein | apparent Kd = ____
14.8

====

Consider the following sequences; for each one, report its apparent Kd.
# Tested on: MS2 coat protein
# assay.details: apparent Kd, MS2 coat protein; higher = weaker binding; RNA-MaP array
# test.context: ligand present: flavin mononucleotide; designed as: ON switch for flavin mononucleotide
Quick note: unit goes after the number.

Using the record for GGAUACUUUGGAGGAUAUAAUUUUAUCAUCACUUGUGAUCGAUGACAUGAGGAUCACCCAUGUAAUUAGAAGGCCAUUAAUUAC , report its apparent Kd.
38.4 nM

Please give the measured apparent Kd for this sequence: AGUAGGCAUUCAGGAUAUGGGGAUUUCUCACUGCCACAUGAGGAUCACCCAUGUGGAAGGUACACCCAGAAGGGAAAGUGGUUA
11.3 nM

State the recorded apparent Kd for this entry: GCUCUACAGGAGAAGGUCAUAUCAUCGGUUAUUGAAGGAUAUCCUCAAGGGACGCUGAGGCGUACAUGAGGAUCACCCAUGUCC
52.2 nM

Any idea what its apparent Kd is? The sequence is CGACUCCCAGAGAAGGCCGCAAACAUGAGGAUCACCCAUGUACUACCUGAGUCUCGGGCGGUACCGGAGGAUAUCUAGGCUCGC
10.9 nM

Given AAAAGGUCCGCUACAUGAGGAUCACCCAUGUAAAGGGUAAAUCAGGAUAUGGACGGGAGUCUUAACCAGAAGGGAUUACAGGUC , state its recorded apparent Kd.
25.1 nM

GET /values?readout=apparent Kd&item= UUAAUUCAGUGCCACAUGAGGAUCACCCAUGUCCAUACUCAAAAGGAUAUAUGCGGUUUCUAAGUAUAGAAGGUUUGUACACGA
89 nM

Dear colleague, I am looking for the recorded apparent Kd of the following sequence: UGACUGUCGAAAGGAUAUGGUCGCACGCACACAUCAGUGUUUCACAUGAGGAUCACCCAUGUGGUCCAGAAGGUUCAUAAAUAU
122 nM

====

# Tested on: MS2 coat protein
# assay.details: apparent Kd, MS2 coat protein; higher = weaker binding; RNA-MaP array
# test.context: ligand present: flavin mononucleotide; designed as: OFF switch for flavin mononucleotide
Would you mind labelling by apparent Kd? At or over 40 nM is met, under is not met.

Identify whether the reported apparent Kd of the following sequence is 40 nM or greater: AGGACGUCAGGAUAUUCUAUGUGGCUCUAAUGGCCGACCAUGAAGAAGGGACAUGAGGAUCACCCAUGUGAGCU
met

Check if apparent Kd >= 40 nM (inclusive). Item: CGGCGACAUGAGGAUCACCCAUGUUAGGAUAUUCAGUUAACUGUGUUUGAUCGUUUGAGAAGAAGGAACGUGAG
not met

Could you tell me if the measured apparent Kd of GGGAUCGGAGGAUAUCGGUGGUUUAACAUGAGGAUCACCCAUGUGAAUAAACAAGUGGAGCGAGAAGGCCGGCGCU reaches 40 nM or more?
not met

Check the entry CGGUAGUUUUAGAAGGAGCAACCAAGUUUACAUGAGGAUCACCCAUGUGUGAGGAUAUGUUAAGGCUAGGAUAUAAUAGAACCU : does apparent Kd equal or exceed 40 nM?
not met

Say whether AGAGCACAUGAGGAUCACCCAUGUUAGGAUAUAAGUCUGGAUCUACCUGAGCCCGAUCUUAGAAGGAACGGUGU shows apparent Kd of 40 nM or more.
not met

Dear colleague, could you confirm whether UAAGAAGAUGAGAAGGGCCAAGUAUGAGCCGGGCGAUACAUGAGGAUCACCCAUGUUUCCUAACGGCAGGAUAUCACUUCCUAU has apparent Kd at or above 40 nM?
not met

Entry UCCUCGUUUACAUGAGGAUCACCCAUGUGCUCGUCUAAACAUUAGGAUAUCGACCCUCUGCGCAUCGAGAAGGAAUACGGCGAG : is its apparent Kd no less than 40 nM?
met

Exam item: decide whether the reported apparent Kd for AGGACAUGAGGAUCACCCAUGUGAUGACAUUUCCUAGAACCGAAGGAUAUGCAAACGGAACCCGCGCAGAAGGUCGCUAACCUU is at least 40 nM.
met

Say whether CUCGGCGCCCAAGGAUAUAGUGGAGGUAAGAAACUAGAAGGUGGUGUGCUAACAUGUUGUCCUUUACAUGAGGAUCACCCAUGU shows apparent Kd of 40 nM or more.
not met

Evaluate CUCUUAGAAGGAUAUUAAUAAUGUUACAUGAGGAUCACCCAUGUCUCAAUAUGUGACCGUUAAGAAGGUCUAUCGC : apparent Kd at minimum 40 nM?
not met

Form field: apparent Kd at least 40 nM? Entry: CUCGCGUGAGGAUAUGCCACGCCCGAAAGGCCGGGUCAUCGGCAGAAGGCACAUGAGGAUCACCCAUGUAUCGC
met

Record CUCUUAGGACAGGAUAUGGAACGCAUGUGUGCUCCAGAAGGGUCUACAUGAGGAUCACCCAUGUUCGGGACGGU ; criterion: apparent Kd no lower than 40 nM. Met?
met
